Known TNFα concentration in culture supernatant of a selection of substances
Tested on: PBMCs from RA patients
Assay: Cellular stimulation assay: PBMCs incubated with individual peptides DMB 1001-DMB 1010, cytokines in supernatant by AlphaLisa
Type: cell-based, human
Conditions: PBMC Sample 2; peptide 10 μg/ml; 20 hrs incubation
Square brackets hold non-standard residues; d marks the D form. Ends that are not written are not given here. Cit = NC(=O)NCCC[C@H](N)C(=O)O
property: TNFα concentration in culture supernatant

>>> result("GP[Cit]VVE[Cit]HQSACKDS [DMB 1007]")
"4.6 pg/mL"
>>> result("KIHAREIFDSRGNPTVE [DMB 1010, Alpha enolase peptide, not citrullinated]")
"3.6 pg/mL"
>>> result("VYATRSSAVRLRSSVP [DMB 1002, Vimentin-derived peptide, not citrullinated]")
"2.7 pg/mL"
>>> result("GPRVVERHQSACKDS [DMB 1008, Fibrinogen alpha chain peptide, not citrullinated]")
"7.5 pg/mL"
>>> result("NEEGFFSA[Cit]GHRPLDKK [DMB 1003]")
"2.2 pg/mL"
>>> result("HQCHQESTRGRSRGRCGRSGS [DMB 1006, Filaggrin peptide, not citrullinated]")
"7.6 pg/mL"
>>> result("KIHA[Cit]EIFDS[Cit]GNPTVE [DMB 1009]")
"6.4 pg/mL"
>>> result("NEEGFFSARGHRPLDKK [DMB 1004, Fibrinogen beta chain peptide, not citrullinated]")
"6.7 pg/mL"
>>> result("HQCHQEST[Cit]GRSRGRCGRSGS (cysteine pairing not given here) [DMB 1005]")
"3.6 pg/mL"
